Organism: Rattus norvegicus
PROCEDURE_SUMMARY: Open TG-GATES - Regimen: Daily Repeat
Assay type: toxicity, organism-based, Sprague-Dawley
Parameters: regimen Daily Repeat, gender Male, age 6 weeks
EXPERIMENTAL_PARAMETERS: in vivo, po, 0 mg/kg, […], tissue Plasma, route gavage, dose level Control, time 28 day
EXPERIMENTAL_READOUT: BUN (mg/dL)
Express it in mg/dL; write the number only.

stdin: Input CCN(CC)N=O , output reported BUN.
stdout: 17.4

stdin: Could you please provide reported BUN for CC(CCc1ccccc1)NCC(O)c1ccc(O)c(C(N)=O)c1 (configuration not stated) ? Thanks!
stdout: 17

stdin: Answer with the recorded BUN of CC[C@@H](CO)NCCN[C@@H](CC)CO only.
stdout: 19.4

stdin: Name the recorded BUN of the compound listed here: O=C(O)COc1nn(Cc2ccccc2)c2ccccc12
stdout: 20

stdin: Note down BUN recorded for CC(=O)N1CCN(c2ccc(OCC3COC(Cn4ccnc4)(c4ccc(Cl)cc4Cl)O3)cc2)CC1 (configuration not stated)
stdout: 19.6

stdin: Assign BUN to the following record: CC(=O)Nc1ccc2c(c1)Cc1ccccc1-2
stdout: 19

stdin: Please look at this compound and report its BUN: CC(N)=O [ACETAMIDE]
stdout: 16.3

====

Organism: Rattus norvegicus
PROCEDURE_SUMMARY: Open TG-GATES - Regimen: Single
Assay type: toxicity, organism-based, Sprague-Dawley
Parameters: regimen Single, gender Male, age 6 weeks
EXPERIMENTAL_PARAMETERS: in vivo, po, 0 mg/kg, 3 h, tissue Plasma, route gavage, dose level Control
Please mark true if the recorded TBIL is equal to or greater than 0.05 mg/dL, and false if it falls below.

stdin: Would you say CCN(CC)N=O shows TBIL at minimum 0.05 mg/dL?
stdout: true

stdin: // inclusive: TBIL at least 0.05 mg/dL? input: CC[C@@H](CO)NCCN[C@@H](CC)CO
stdout: false

stdin: Is reported TBIL greater than or equal to 0.05 mg/dL here: CC(CCc1ccccc1)NCC(O)c1ccc(O)c(C(N)=O)c1 (configuration not stated)
stdout: false

stdin: Identify whether the reported TBIL of the following compound is 0.05 mg/dL or greater: CC(=O)N1CCN(c2ccc(OCC3COC(Cn4ccnc4)(c4ccc(Cl)cc4Cl)O3)cc2)CC1 (configuration not stated)
stdout: false

stdin: Does the reported TBIL for CC(C)Cc1ccc(C(C)C(=O)O)cc1 (configuration not stated) fall at or above the 0.05 mg/dL mark?
stdout: false

stdin: # bool: TBIL of CC(=O)Nc1ccc2c(c1)Cc1ccccc1-2 >= 0.05 mg/dL
stdout: true

stdin: Is TBIL for O=C(O)COc1nn(Cc2ccccc2)c2ccccc12 at or above 0.05 mg/dL?
stdout: true

====

Organism: Rattus norvegicus
PROCEDURE_SUMMARY: Open TG-GATES - Regimen: Single
Assay type: toxicity, organism-based, Sprague-Dawley
Set-up: regimen Single, gender Male, age 6 weeks
EXPERIMENTAL_PARAMETERS: in vivo, po, 0 mg/kg, 9 h, tissue Blood, route gavage, dose level Control
EXPERIMENTAL_READOUT: Lym (%)
Enter your answer as a number in %; do not include the unit.

stdin: Indicate its recorded Lym; the molecule in question is CC(=O)Nc1ccc2c(c1)Cc1ccccc1-2
stdout: 75.2

stdin: // fetch Lym given entry CC(C)Cc1ccc(C(C)C(=O)O)cc1 (configuration not stated)
stdout: 79.6

stdin: Retrieve Lym measured for CC(CCc1ccccc1)NCC(O)c1ccc(O)c(C(N)=O)c1 (configuration not stated) and print it.
stdout: 80.6

stdin: Determine from records and report Lym for CC[C@@H](CO)NCCN[C@@H](CC)CO
stdout: 82.6

stdin: Retrieve Lym measured for CCN(CC)N=O and print it.
stdout: 75.4

stdin: Answer with reported Lym of CC(=O)N1CCN(c2ccc(OCC3COC(Cn4ccnc4)(c4ccc(Cl)cc4Cl)O3)cc2)CC1 (configuration not stated)
stdout: 75

stdin: Give the value of Lym reported for the following: O=C(O)COc1nn(Cc2ccccc2)c2ccccc12
stdout: 76.8

Taken from ChEMBL document CHEMBL3885861.
